# Tested on: Pseudomonas aeruginosa
# assay-procedure: Antimicrobial activity against polymyxin resistant Pseudomonas aeruginosa FADDI-PA060 assessed as microbial growth inhibition measured at 18 to 20 hrs by broth microdilution assay
# Assay type: functional
# measurement-context: time 18-20 hrs
Positions of bridges follow the written chain, without caps; N, C: chain ends. Non-standard residues stand in square brackets, D forms with d. Residues, ends and D or L forms follow the SMILES beside them. *: point of attachment. dBip = N[C@H](Cc1ccc(-c2ccccc2)cc1)C(=O)O; Octanoyl = CCCCCCCC(=O)*; Dab = NCC[C@H](N)C(=O)O
assay-metric: MIC (mg/L)

- compound: "CCCCCCCC(=O)N[C@@H](CCN)C(=O)N[C@H](C(=O)N[C@@H](CCN)C(=O)N[C@H]1CCNC(=O)[C@H]([C@@H](C)O)NC(=O)[C@H](CCN)NC(=O)[C@H](CCN)NC(=O)[C@H](Cc2ccccc2)NC(=O)[C@@H](Cc2ccccc2)NC(=O)[C@H](CCN)NC1=O)[C@@H](C)O"
  subject-of-test: "Pseudomonas aeruginosa"
  comparison-sign: ">"
  experimental-value: 32
- compound: "CCCCCCCC(=O)N[C@@H](CCN)C(=O)N[C@H](C(=O)N[C@@H](CCN)C(=O)N[C@H]1CCNC(=O)[C@H]([C@@H](C)O)NC(=O)[C@H](CCN)NC(=O)[C@H](CCN)NC(=O)[C@H](CC(C)C)NC(=O)[C@@H](Cc2ccc(-c3ccccc3)cc2)NC(=O)[C@H](CCN)NC1=O)[C@@H](C)O (Octanoyl-[Dab]T[Dab][Dab][Dab][dBip]L[Dab][Dab]T; lactam 4-C)"
  subject-of-test: "Pseudomonas aeruginosa"
  comparison-sign: "="
  experimental-value: 8

Data provenance is ChEMBL document CHEMBL5137059.
